read-out: urokinase plasminogen activator (uPA), PLAU (gene 5328); experiment: BSK_KF3CT_uPA: BioMAP Diversity Plus: KF3CT Assay for urokinase plasminogen activator (uPA) Biomarker Activity (AID 2283075); conditions: primary human keratinocytes with fibroblasts; actives raise or lower the signal
Activity calls are given as the source filed them. Rule for the calls: active = hit-call score of the fitted dose curve at least 0.9, where 1 is the maximum; inactive = score below 0.9.
Permitted responses: active, inactive

Consider the worked cases shown below.
* CCCCCCCCCCC1CO1 (stereo unspecified) | active
* CCCCCCCCCCCCCCCCCC[N+](C)(C)C | active
* O=C(C(=O)c1ccccc1)c1ccccc1 | inactive
* Cc1cc(-n2nc3ccc(Cl)cc3n2)c(O)c(C(C)(C)C)c1 | inactive
* Cc1cccnc1 | inactive
* Oc1cccc2ccccc12 | inactive

Hello, I am checking results. What call was entered for COc1ccc(C(=O)c2ccccc2O)c(O)c1 ?
inactive

Repeat with CC(C)CC(=O)CC(C)CC(C)C (stereo unspecified)
active

Queued: CCC[Si](OC(C)=O)(OC(C)=O)OC(C)=O
inactive

Then what about the compound OC(C(F)(F)F)(C(F)(F)F)C(O)(C(F)(F)F)C(F)(F)F ?
inactive

What do we get for CCCCCCC(O)CCCCCCCCCCC(=O)OC (stereo unspecified) ?
inactive

Please give the result for COc1ccccc1Oc1c(NS(=O)(=O)c2ccc(C(C)(C)C)cc2)nc(-c2ncccn2)nc1OCCO too.
inactive

Query CN(C)CCC(c1ccc(Cl)cc1)c1ccccn1 (stereo unspecified) next
inactive

Same again, this time with CC[N+](CC)(CC(=O)Nc1c(C)cccc1C)Cc1ccccc1 (tested in a mixture with another compound)
inactive

Now consider C1CN(CCOCCN2CCOCC2)CCO1 and answer again.
inactive

Same thing, different compound: COC(=O)/C=C\C(=O)OC
inactive

###

molecular target: Cellular tumor antigen p53 (Homo sapiens) (UniProt P04637); test: TOX21_p53_BLA_p5_ratio: Tox21 HCT-116 p53 Agonism Beta-lactamase Assay, Ratio, Phase 5 (AID 2283599)
Sequence (P04637 whole entry, looked up): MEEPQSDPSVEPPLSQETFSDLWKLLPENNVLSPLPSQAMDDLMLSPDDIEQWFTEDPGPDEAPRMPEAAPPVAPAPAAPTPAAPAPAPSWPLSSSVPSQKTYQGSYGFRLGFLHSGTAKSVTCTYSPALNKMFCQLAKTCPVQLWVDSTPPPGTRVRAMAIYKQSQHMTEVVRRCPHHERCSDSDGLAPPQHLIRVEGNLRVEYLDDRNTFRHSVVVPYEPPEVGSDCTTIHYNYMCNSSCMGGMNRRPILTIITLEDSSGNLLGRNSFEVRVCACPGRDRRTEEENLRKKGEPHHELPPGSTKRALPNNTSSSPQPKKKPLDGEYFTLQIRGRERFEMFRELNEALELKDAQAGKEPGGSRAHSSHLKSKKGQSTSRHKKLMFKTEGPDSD
Results filed as inconclusive are left out. Calls of active or inactive are those of the source. How the source made its calls: active means hit-call score of the fitted dose curve at least 0.9, where 1 is the maximum; inconclusive means response in the unintended direction; inactive means score below 0.9. Where a SMILES comes first, the peptide text is derived from it. Bridges are numbered along the chain shown (N, C = ends). [ ]: non-standard residue; d: D form. The star is where a group is joined. Ileψ(thiazoline)Cys = CC[C@H](C)[C@H](N)C1=N[C@H](C(=O)*)CS1; dOrn = NCCC[C@@H](N)C(=O)O
Give your call using only these classes: yes = active, no = inactive

Below, 3 molecules whose answers are already recorded.
- CNCC[C@H](Oc1cccc2ccccc12)c1cccs1: no
- Cc1ncc(CO)c(C=O)c1O: no
- O=C(C=Cc1ccc(O)c(O)c1)O[C@@H]1C[C@@](OC(=O)C=Cc2ccc(O)c(O)c2)(C(=O)O)C[C@@H](O)[C@@H]1O: no

Write down the call the test reported for this molecule. Item: CC(C)c1ccc2oc3nc(N)c(C(=O)O)cc3c(=O)c2c1
no

Would you mind doing CCCCCCCCOCCC#N as well?
no

Another: Nc1c(Br)cc(Br)cc1CNC1CCC(O)CC1 (centres undefined)
no

Also check Clc1nnc(Cl)c2ccccc12
no

Another molecule to look at: NNc1ccc(C(=O)O)cc1
no

Repeat with CC1CCCO1 (centres undefined)
yes

Another molecule: Cc1nc2n(c(=O)c1CCN1CCC(c3noc4cc(F)ccc34)CC1)CCC[C@H]2O
no

Next molecule up: O=C(O)c1ccccc1C(=O)O
no

Please answer likewise for CC[C@H](C)[C@H](N)C1=N[C@H](C(=O)N[C@@H](CC(C)C)C(=O)N[C@H](CCC(=O)O)C(=O)N[C@H](C(=O)N[C@H]2CCCCNC(=O)[C@H](CC(N)=O)NC(=O)[C@@H](CC(=O)O)NC(=O)[C@H](Cc3cnc[nH]3)NC(=O)[C@@H](Cc3ccccc3)NC(=O)[C@H]([C@@H](C)CC)NC(=O)[C@@H](CCCN)NC2=O)[C@@H](C)CC)CS1 ({Ileψ(thiazoline)Cys}-L[dE]IK[dOrn]I[dF]H[dD]N; lactam 4-C)
no

And for CON=C(C(=O)N[C@@H]1C(=O)N2C(C(=O)O)=C(COC(N)=O)CS[C@H]12)c1ccco1 ?
no

Then this molecule: CN1CCN(CCCN2c3ccccc3Sc3ccc(C(F)(F)F)cc32)CC1
no

// repeat for O=C(O)O and report
no

Now the molecule C=Cc1ccccc1
no

Proceed to CNc1cc(OC)c(C(=O)N[C@H]2CCN(Cc3ccccc3)[C@H]2C)cc1Cl
no

Can you handle CC1=C(/C=C/C(C)=C/C=C/C(C)=C/C(=O)Oc2c(C)c(C)c3c(c2C)CC[C@@](C)(CCC[C@H](C)CCC[C@H](C)CCCC(C)C)O3)C(C)(C)CCC1 next?
no

Record: N#C/C(=C1/SC[C@@H](c2ccc(Cl)cc2Cl)S1)n1ccnc1
no

CN(C)CCN(C)CCN(C)C , same question.
no

Same for CC1=C[C@H](O)CC(C)(C)[C@H]1/C=C/C(C)=C/C=C/C(C)=C/C=C/C=C(C)/C=C/C=C(C)/C=C/C1=C(C)C[C@@H](O)CC1(C)C
yes

Entry to check: COc1cc(C)c(Cc2cnc(N)nc2N)cc1OC
no

And what about the molecule COC(=O)c1ccccc1 ?
no

Follow-up item: N#Cc1c(F)cccc1F
no

###

assay: ATG_GATA_CIS: Attagene CIS-FACTORIAL HepG2 Assay for human GATA Binding Protein (AID 2282944); details: HepG2 GATA cis-element reporter, Attagene multiplex mRNA; actives raise or lower the signal
Calls of active or inactive are those of the source. How the source made its calls: active means hit-call score of the fitted dose curve at least 0.9, where 1 is the maximum; inactive means score below 0.9.
ASSAY METRIC: outcome

Below: 6 molecules and their reported outcome.
* N#CCN(CC#N)CCN(CC#N)CC#N | inactive
* CCC(C)NC(N)=O (centres undefined) | inactive
* CC(C)CC(=O)CC(C)CC(C)C (centres undefined) | inactive
* O=C(O)Cc1c[nH]c2ccccc12 | inactive
* C/C=C(\C)C(=O)OCC/C=C\CC | inactive
* C1=CCC=C1 | inactive

outcome for Cc1cccnc1 ?
inactive

Another molecule to check: O=C(O)c1nc(Cl)c(Cl)c(Cl)c1Cl
inactive

Next record, please: CC[N+](CC)(CC(=O)Nc1c(C)cccc1C)Cc1ccccc1 (tested in a mixture with another compound)
inactive

Repeat with CCC(=O)OCc1ccc(OC)cc1
inactive

Same thing, different molecule: O=C1NC(=O)[C@@H]2CC=CC[C@H]12
inactive

Subsequent entry: CCCc1c(OCCCCc2nn[nH]n2)ccc(C(C)=O)c1O
inactive

Next molecule up: CN(C)c1ccc(C(c2ccccc2)c2ccc(N(C)C)cc2)cc1
inactive

Please give the result for CCCCCCOC(=O)CCCCCCCC(=O)OCCCCCC too.
inactive

###

read-out: Monocyte Chemoattractant Protein-1 (MCP1), CCL2 (gene 6347); assay: BSK_3C_MCP1: BioMAP Diversity Plus: 3C Assay for Monocyte Chemoattractant Protein-1 (MCP1) Biomarker Activity (AID 2283017); conditions: primary human endothelial cells (HUVEC); actives raise or lower the signal
The source made the active and inactive calls. Rule for the calls: active = hit-call score of the fitted dose curve at least 0.9, where 1 is the maximum; inactive = score below 0.9.
The reply should name one outcome from active, inactive

* C1CN(CCOCCN2CCOCC2)CCO1 | inactive
* Cc1cccnc1 | inactive
* COC(=O)/C=C\C(=O)OC | inactive

Please let me know the test result on file for Cc1c(C(N)=O)cc([N+](=O)[O-])cc1[N+](=O)[O-] .
inactive

Now try CN(C)Cc1cc(C(C)(C)C)c(O)c(C(C)(C)C)c1 .
inactive

And then CCCCCCCCCCC1CO1 (centres undefined) , what is it?
active

Also need CC(C)C1OCCN1CCOC(=O)NCCCCCCNC(=O)OCCN1CCOC1C(C)C (centres undefined) , thanks.
inactive

Same thing, different compound: CCC[Si](OC(C)=O)(OC(C)=O)OC(C)=O
inactive

And the next one, COc1ccc(C(=O)c2ccccc2O)c(O)c1 ?
inactive

Then this compound: CCCCCCC(O)CCCCCCCCCCC(=O)OC (centres undefined)
inactive

One more compound: Sc1nc2ccccc2s1
inactive

And the next one, Cc1cc(-n2nc3ccc(Cl)cc3n2)c(O)c(C(C)(C)C)c1 ?
inactive

Check CCCCCCCCCC/C=C/C1CC(=O)OC1=O (centres undefined) too.
inactive

Let us now turn to COc1cc(CNC(=O)CCCC/C=C/C(C)C)ccc1O
inactive

###

assay: CCTE_Mundy_HCI_hN2_NOG_NeuriteCount: CCTE's Neurite Outgrowth Assay in human hN2 cells for Neurite Count, Mundy Lab (AID 2284219)
Records with an inconclusive call do not appear. Activity calls are given as the source filed them. The calls were made as follows: active = hit-call score of the fitted dose curve at least 0.9, where 1 is the maximum; inconclusive = response in the unintended direction; inactive = score below 0.9.
// allowed return values: active, inactive

• CNCCC(Oc1ccc(C(F)(F)F)cc1)c1ccccc1 (stereo not given) = active

# lookup: test call for CN(C)C(=O)C(CCN1CCC(O)(c2ccc(Cl)cc2)CC1)(c1ccccc1)c1ccccc1
active

Moving on to C[C@@H]1C[C@H]2[C@@H]3CCC4=CC(=O)C=C[C@]4(C)[C@@]3(F)[C@@H](O)C[C@]2(C)[C@@]1(O)C(=O)CO
inactive

Another compound to check: CC1(C)S[C@@H]2[C@H](NC(=O)[C@H](N)c3ccc(O)cc3)C(=O)N2[C@H]1C(=O)O
inactive

Do the same for CC(C)(C)NCC(O)c1cc(O)cc(O)c1 (stereo not given) please
inactive
